In this section, each of the compounds is paired with its reported Growth inhibition (% control) GIPRCNT.
- Tested on: UACC-257
- test details: NCI60 growth inhibition, UACC-257; note: test concentration or dose not given here
- Type: cell-based
- experimental setup: Melanoma
Expressed in % control, but write only the number.

CN1CCN(c2ccc3nc4c(nc3c2C(F)(F)F)C(=O)c2ncccc2C4=O)CC1 : −82.2969
O=C1c2cccnc2C(=O)c2nc3cc(N4CCN(C5CC5)CC4)ccc3nc21 : −84.4508
Cc1ccc2c(n1)C(=O)C(Cl)=C(Nc1ccc(N3CCN(C)CC3)cc1)C2=O : 57.23

For CN1CCN(c2cc(F)c(NC3=C(Cl)C(=O)c4ncccc4C3=O)c(F)c2)CC1 , what is its reported Growth inhibition (% control) GIPRCNT?
−62.2412

* * *

Some compounds, each annotated with its measured Growth inhibition (% control) GIPRCNT.
- Test system: OVCAR-5
- test details: NCI60 growth inhibition, OVCAR-5
- Type: cell-based
- experimental setup: Ovarian Cancer
- Experimental: Representative compounds were tested in 60 cell lines (NCI60) at the National Cancer Institute, Developmental Therapeutics Program. Representative compounds were tested in a panel of 60 cancer cells (NCI 60) at the National Cancer Institute. Growth inhibition are shown in table 2, table 3, table 4, table 5, and FIG. 1, FIG. 2, FIG. 3, FIG. 4, FIG. 5.
Give the value in % control but do not write % control after it.

Take a look at these entries with their results.
O=C1c2cccnc2C(=O)c2nc3cc(N4CCN(C5CC5)CC4)ccc3nc21 : −82.2933
CN1CCN(c2cc(F)c(NC3=C(Cl)C(=O)c4ncccc4C3=O)c(F)c2)CC1 : −59.8079
CN1CCN(c2ccc3nc4c(nc3c2C(F)(F)F)C(=O)c2ncccc2C4=O)CC1 : −90.4043

Alright, here's another compound for you.
Requested read-out: Growth inhibition (% control) GIPRCNT. Entry: Cc1ccc2c(n1)C(=O)C(Cl)=C(Nc1ccc(N3CCN(C)CC3)cc1)C2=O
−7.548

* * *

The following molecules are shown together with reported Growth inhibition (% control) GIPRCNT values.
- Test system: IGROV1
- test details: NCI60 growth inhibition, IGROV1
- Format: cell-based
- experimental setup: Ovarian Cancer
Give your result in % control as a bare value.

Cc1ccc2c(n1)C(=O)C(Cl)=C(Nc1ccc(N3CCN(C)CC3)cc1)C2=O [Compound 13] : −83.5269
CN1CCN(c2cc(F)c(NC3=C(Cl)C(=O)c4ncccc4C3=O)c(F)c2)CC1 [Compound 1] : −90.4429
O=C1c2cccnc2C(=O)c2nc3cc(N4CCN(C5CC5)CC4)ccc3nc21 [Compound 49] : −13.7639

Next molecule, Growth inhibition (% control) GIPRCNT to be filled in.
I would be grateful if you could share the reported Growth inhibition (% control) GIPRCNT for CN1CCN(c2ccc3nc4c(nc3c2C(F)(F)F)C(=O)c2ncccc2C4=O)CC1 [Compound 50] .
−32.57

* * *

- System: NCI-H322M
- test details: NCI60 growth inhibition, NCI-H322M
- Format: cell-based
- experimental setup: Non-Small Cell Lung Cancer
measure: Growth inhibition (% control) GIPRCNT
Supply the numeric figure in % control, leaving out any unit text.

Reference set, count: 3
CN1CCN(c2ccc3nc4c(nc3c2C(F)(F)F)C(=O)c2ncccc2C4=O)CC1 : 36.63
O=C1c2cccnc2C(=O)c2nc3cc(N4CCN(C5CC5)CC4)ccc3nc21 : −96.67
Cc1ccc2c(n1)C(=O)C(Cl)=C(Nc1ccc(N3CCN(C)CC3)cc1)C2=O : 97.35

From here, focus on the item given below.
Recorded Growth inhibition (% control) GIPRCNT of CN1CCN(c2cc(F)c(NC3=C(Cl)C(=O)c4ncccc4C3=O)c(F)c2)CC1 , please.
101.8249
